Biological target: JAK3 (recombinant human kinase domain; h-jak3(810-1124)) (Homo sapiens, UniProt P52333)
Construct: h-jak3(810- 1124)-sf9-c; made in house; host or cells: Sf9 insect cells
Sequence (P52333 810-1124): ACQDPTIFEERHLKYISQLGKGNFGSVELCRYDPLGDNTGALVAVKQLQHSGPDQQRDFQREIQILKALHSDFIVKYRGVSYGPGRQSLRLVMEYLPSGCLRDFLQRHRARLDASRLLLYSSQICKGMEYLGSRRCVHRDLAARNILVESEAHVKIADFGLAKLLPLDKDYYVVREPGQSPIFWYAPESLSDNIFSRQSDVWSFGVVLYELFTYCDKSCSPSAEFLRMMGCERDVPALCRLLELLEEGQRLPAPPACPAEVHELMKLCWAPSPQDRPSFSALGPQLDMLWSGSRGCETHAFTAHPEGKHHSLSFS
Test: Determination of IC50 of Janus Kinase (JAK) inhibition: JAK3, radioactive end-point assay with 33P-ATP
Assay type: biochemical
Conditions: JAK3 kinase domain; ATP 1.5 uM, peptide 50 uM, 20 minutes, room temperature, 10% DMSO; read-out: Ic50 h-jak3(810-1124)-sf9-c:no additive
assayEndpoint: pIC50
Give bare numbers, as −log10 of the molar value.

> print(dat)
                             compoundsmiles  assayendpoint  numericreadout
1  CC(C)NC(=O)c1c[nH]c2ncc(Oc3cccc(C(C)(C)C)c3)nc12          pIC50            5.37
2  CC(C)NC(=O)c1c[nH]c2ncc(Oc3ccccc3Cl)nc12          pIC50            6.42
3  C[C@H](NC(=O)c1c[nH]c2ncc(-c3ccc(C(=O)NC(C)(C)C)s3)nc12)C(C)(C)C          pIC50            9.37
4  C[C@H](Cc1cnc[nH]1)NC(=O)c1ccc(-c2cnc3[nH]cc(C(=O)N[C@@H](C)C(C)(C)C)c3n2)s1          pIC50            9.19
5  C[C@H](NC(=O)c1c[nH]c2ncc(-c3ccc(C(=O)N[C@H](C)C(C)(C)C)s3)nc12)C(C)(C)C          pIC50            9.33
6  Cc1ccc(CNC(=O)c2ccc(-c3cnc4[nH]cc(C(=O)N[C@@H](C)C(C)(C)C)c4n3)s2)cc1          pIC50            9.49
7        N#CCCNC(=O)c1c[nH]c2ncc(C3CC3)nc12          pIC50            6.36
8  CCC[C@@](C)(O)[C@@H](C)NC(=O)c1c[nH]c2ncc(C3CC3)nc12          pIC50            7.19

Consider the following items and state reported pIC50 for each.
1. C[C@@H](NC(=O)c1c[nH]c2ncc(C3CC3)nc12)[C@](C)(O)CC#N
2. CC(C)NC(=O)c1c[nH]c2ncc(Oc3cccc4[nH]ccc34)nc12

1: 7.41; 2: 6.45
